Target: hERG channel (Homo sapiens, UniProt Q12809)
Sequence (Q12809 whole entry): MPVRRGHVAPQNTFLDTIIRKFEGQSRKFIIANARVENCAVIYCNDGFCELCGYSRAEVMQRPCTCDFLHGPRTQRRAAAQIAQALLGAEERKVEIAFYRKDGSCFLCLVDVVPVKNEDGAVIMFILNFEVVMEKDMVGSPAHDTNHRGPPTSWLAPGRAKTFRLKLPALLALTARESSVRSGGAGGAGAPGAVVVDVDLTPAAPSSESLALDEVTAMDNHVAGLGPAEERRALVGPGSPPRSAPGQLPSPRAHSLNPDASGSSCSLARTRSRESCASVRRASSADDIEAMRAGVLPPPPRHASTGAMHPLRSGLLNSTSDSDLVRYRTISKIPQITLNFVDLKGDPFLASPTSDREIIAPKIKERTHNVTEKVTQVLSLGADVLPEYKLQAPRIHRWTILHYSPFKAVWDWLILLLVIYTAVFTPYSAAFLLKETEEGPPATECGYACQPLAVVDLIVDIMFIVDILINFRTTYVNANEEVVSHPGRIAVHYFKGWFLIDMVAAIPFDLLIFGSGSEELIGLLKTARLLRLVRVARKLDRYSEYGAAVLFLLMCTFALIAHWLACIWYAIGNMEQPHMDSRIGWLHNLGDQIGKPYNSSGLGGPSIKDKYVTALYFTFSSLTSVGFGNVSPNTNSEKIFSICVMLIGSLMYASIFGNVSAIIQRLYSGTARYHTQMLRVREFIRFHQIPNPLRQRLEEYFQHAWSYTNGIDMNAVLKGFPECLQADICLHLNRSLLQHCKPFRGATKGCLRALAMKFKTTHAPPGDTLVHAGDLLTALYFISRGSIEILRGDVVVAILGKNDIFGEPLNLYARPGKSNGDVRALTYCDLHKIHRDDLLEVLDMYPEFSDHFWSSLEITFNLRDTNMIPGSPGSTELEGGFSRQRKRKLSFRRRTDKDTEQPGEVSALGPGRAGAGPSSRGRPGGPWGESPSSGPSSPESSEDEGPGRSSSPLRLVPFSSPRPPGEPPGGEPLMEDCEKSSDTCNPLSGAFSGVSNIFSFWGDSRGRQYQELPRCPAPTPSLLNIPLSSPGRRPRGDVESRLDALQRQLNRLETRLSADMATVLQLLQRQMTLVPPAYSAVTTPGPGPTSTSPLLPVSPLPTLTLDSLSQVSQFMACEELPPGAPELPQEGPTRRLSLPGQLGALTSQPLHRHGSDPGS
Assay: hERG channel current block, whole cell recording in HEK293 cells
Assay type: cell-based
Settings: HEK293 cells expressing hERG
Measurement kind: hERG at 10 micromolar (% blocking of the hERG channel) (%)

* COc1ccc2c(c1)N=C(N1CCN(CC(C)(C)C(=O)O)CC1)c1ccccc1O2 [Compound 21] | 0
* COc1ccc2c(c1)C(N1CCN(CC(C)(C)C(=O)O)CC1)=Nc1cc(C)ccc1O2 [Compound 54] | 6.10
* COc1ccc2c(c1)N=C(N1CCN(CC(C)(C)C(=O)O)CC1)c1cc(OC)ccc1O2 [Compound 23] | 8.90
* Cc1ccc2c(c1)N=C(N1CCN(CC(C)(C)C(=O)O)CC1)c1cc(C)ccc1O2 [Compound 20] | 5.30
* O=C(O)C1(CN2CCN(C3=Nc4ccccc4Oc4ccc(Br)cc43)CC2)CC1 [Compound 9] | 59
* Cc1ccc2c(c1)Oc1ccc(Br)cc1N=C2N1CCN(CC(C)(C)C(=O)O)CC1 [Compound 44] | 65.90
* Cc1ccc2c(c1)Oc1ccc(C)cc1C(N1CCN(CC(C)(C)C(=O)O)CC1)=N2 [Compound 31] | 3.80
* COc1ccc2c(c1)Oc1ccccc1C(N1CCN(CC(C)(C)C(=O)O)CC1)=N2 [Compound 32] | 1.60
* CC(C)(CN1CCN(C2=Nc3ccccc3Oc3ccc(Cl)cc32)CC1)C(=O)O [Compound 5] | 36
* COc1ccc2c(c1)C(N1CCN(CC(C)(C)C(=O)O)CC1)=Nc1ccc(Br)cc1O2 [Compound 72] | 10.90
* O=C(O)C1(CN2CCN(C3=Nc4ccccc4Oc4ccccc43)CC2)CC1 [Compound 2] | 19
* Cc1ccc2c(c1)N=C(N1CCN(CC(C)(C)C(=O)O)CC1)c1ccc(C)cc1O2 [Compound 52] | 19.80
* COc1ccc2c(c1)C(N1CCN(CC(C)(C)C(=O)O)CC1)=Nc1cc(Br)ccc1O2 [Compound 51] | 32
* CC(C)(CN1CCN(C2=Nc3cc(Br)ccc3Oc3ccccc32)CC1)C(=O)O [Compound 17] | 30.10
* COc1ccc2c(c1)N=C(N1CCN(CC(C)(C)C(=O)O)CC1)c1cc(C)ccc1O2 [Compound 56] | 0.30
* COc1ccc2c(c1)C(N1CCN(CC(C)(C)C(=O)O)CC1)=Nc1ccc(C)cc1O2 [Compound 58] | 0.20
* Cc1ccc2c(c1)C(N1CCN(CC(C)(C)C(=O)O)CC1)=Nc1ccccc1O2 [Compound 10] | 14
